test system: V. cholerae SAD30; construct: SAD30; parameters: species or system S. aureus MSSA476 (TSB) or V. cholerae SAD30 (LB); 384-well bacterial growth screen at 25 uM, OD600 relative to DMSO control; details: relative growth, OD600, LB; 25 µM; inhibitor
Out of some 3,200 compounds screened, about 110 (3.4%) showed an effect of 50% or more. Only a selection was taken, and strong results are over-represented in it overall.
Parameter % of control remaining: see the listing below.
Answer format: numeric, % implied, no suffix.

So for CC(C#N)Oc1ccc(C=C(C#N)C(=O)Nc2ccccc2Cl)cc1 (centres unmarked) , the logged % of control remaining turned out to be 89.259

So for CC(Cl)C(=O)NCCC1=CCCCCC1 (centres unmarked) , the logged % of control remaining turned out to be 88.2631

So for CC(Cl)C(=O)NCCc1cn(C)nn1 (centres unmarked) , the logged % of control remaining turned out to be 82.7358

So for `CC(C)c1ccc(CCNC(=O)CCl)cc1` , the logged % of control remaining turned out to be 91.9139

All values here come from paper PMC11995724.
